- assayProcedure: Pharmacokinetics of tramadol and O-desmethyl tramadol in SD rats with or without crizotinib
- assayContext: male, Sprague-Dawley, rat, serum, po, 20 mg/kg, Cmax, Group C: 0.5% CMC-Na for 7 days, then single 20 mg/kg tramadol

{"compound": "COc1cccc(C2(O)CCCCC2CN(C)C)c1 (centres unmarked) [Tramadol, tramadol]", "Cmax, ng/mL": 246}
{"compound": "CN(C)C[C@H]1CCCC[C@]1(O)c1cccc(O)c1 [O-desmethyl tramadol]", "Cmax, ng/mL": 292}

###

Each entry below lists one item and its recorded inhibition at 30 min, 100 µM value.
- System: tramadol metabolism (O-desmethyl tramadol production) in rat liver microsomes
- assayProcedure: Liver microsomal incubation assay: inhibition of tramadol metabolism (O-desmethyl tramadol production) in RLM
- Assay type: in vitro ADME
- assayContext: rat, pH 7.4, inhibitory rate on tramadol metabolism (production of O-desmethyl tramadol)
observable: inhibition at 30 min, 100 µM (%)

{"compoundStructureString": "CNC(=O)c1cc(Oc2ccc(NC(=O)Nc3ccc(Cl)c(C(F)(F)F)c3)c(F)c2)ccn1", "reading": 83.7}
{"compoundStructureString": "CNC(=O)c1cc(Oc2ccc(NC(=O)Nc3ccc(Cl)c(C(F)(F)F)c3)cc2)ccn1", "reading": 96.7}
